# protocol: Human liver microsome clearance (HLM CL)
# Assay type: in vitro ADME
# condition-set: human liver microsomes 0.5 mg protein/mL, NADPH, 60 min; read-out: HLM Cl (human liver microsome clearance)
Entries and their CLint scaled values follow.
I only need the number, in mL/min/kg, no unit after it.

Past entries and their recorded results:
compound	experimental-readout	measured-result
CC[C@@]1(O)C(=O)OCc2c1cc1n(c2=O)Cc2c-1nc1cc(F)c(C)c3c1c2[C@@H](N)CC3.CS(=O)(=O)O [Exatecan, methanesulfonate, reference compound]	CLint scaled	11.7
CC[C@@]1(O)C(=O)OCc2c1cc1n(c2=O)Cc2c-1nc1cc(F)c(C)c3c1c2[C@](C)(NCCO)CC3.Cl [Compound 17-96, hydrochloride]	CLint scaled	71.3

# next compound below
Lab note: measured CLint scaled of CC[C@@]1(O)C(=O)OCc2c1cc1n(c2=O)Cc2c-1nc1cc(F)c(C)c3c1c2[C@@](C)(NCCO)CC3.Cl [Compound 16-95, hydrochloride] was 25.4

meta.source: patent US12280121B2
